The values you see were collected from ChEMBL document CHEMBL5390201.

- System: HCT-116
- Method Notes: Cytotoxicity against human HCT-116 cells assessed as inhibition of cell growth incubated for 24 hrs by SRB assay
- Type: functional, cell-based
- Details: HCT-116, 24 h
Test Readout: pIC50
Reminder that pIC50 is minus the log10 of a molar concentration.

GET /value?item= "C[C@@H]1CC[C@H]2[C@H](C(=O)c3c(O)c([C@@]4(O)CC[C@@H](O)[C@H]5O[C@H]54)cn(O)c3=O)[C@H](C)C=C[C@@H]2C1" &field=pIC50 returns 5.55

###

- Method Notes: Cmax in Sprague-Dawley rat at 10 mg/kg, ip measured for 240 mins by HPLC-MS/MS analysis
- Format: ADME, organism-based
- Parameters: time 240 min, dose 10 mg/kg, route ip
- Details: in vivo
Test Readout: Cmax

GET /value?item= "C[C@@H]1CC[C@H]2[C@H](C(=O)c3c(O)c([C@@]4(O)CC[C@@H](O)[C@H]5O[C@H]54)cn(O)c3=O)[C@H](C)C=C[C@@H]2C1" &field=Cmax returns 4590 ng/mL
